compounds and their reported IC50
target: ErbB2 with Exon 20 YVMA insertion (HER2-YVMA) (Homo sapiens (Human), UniProt P04626, INS775YVMA); assay: Cellular phosphorylation assay, constitutive ErbB2 phosphorylation (Y1196) in engineered NIH 3T3 cells, Assay 4
Sequence (P04626 other isoform, or with tags, fused parts or gaps ins YVMA behind 775): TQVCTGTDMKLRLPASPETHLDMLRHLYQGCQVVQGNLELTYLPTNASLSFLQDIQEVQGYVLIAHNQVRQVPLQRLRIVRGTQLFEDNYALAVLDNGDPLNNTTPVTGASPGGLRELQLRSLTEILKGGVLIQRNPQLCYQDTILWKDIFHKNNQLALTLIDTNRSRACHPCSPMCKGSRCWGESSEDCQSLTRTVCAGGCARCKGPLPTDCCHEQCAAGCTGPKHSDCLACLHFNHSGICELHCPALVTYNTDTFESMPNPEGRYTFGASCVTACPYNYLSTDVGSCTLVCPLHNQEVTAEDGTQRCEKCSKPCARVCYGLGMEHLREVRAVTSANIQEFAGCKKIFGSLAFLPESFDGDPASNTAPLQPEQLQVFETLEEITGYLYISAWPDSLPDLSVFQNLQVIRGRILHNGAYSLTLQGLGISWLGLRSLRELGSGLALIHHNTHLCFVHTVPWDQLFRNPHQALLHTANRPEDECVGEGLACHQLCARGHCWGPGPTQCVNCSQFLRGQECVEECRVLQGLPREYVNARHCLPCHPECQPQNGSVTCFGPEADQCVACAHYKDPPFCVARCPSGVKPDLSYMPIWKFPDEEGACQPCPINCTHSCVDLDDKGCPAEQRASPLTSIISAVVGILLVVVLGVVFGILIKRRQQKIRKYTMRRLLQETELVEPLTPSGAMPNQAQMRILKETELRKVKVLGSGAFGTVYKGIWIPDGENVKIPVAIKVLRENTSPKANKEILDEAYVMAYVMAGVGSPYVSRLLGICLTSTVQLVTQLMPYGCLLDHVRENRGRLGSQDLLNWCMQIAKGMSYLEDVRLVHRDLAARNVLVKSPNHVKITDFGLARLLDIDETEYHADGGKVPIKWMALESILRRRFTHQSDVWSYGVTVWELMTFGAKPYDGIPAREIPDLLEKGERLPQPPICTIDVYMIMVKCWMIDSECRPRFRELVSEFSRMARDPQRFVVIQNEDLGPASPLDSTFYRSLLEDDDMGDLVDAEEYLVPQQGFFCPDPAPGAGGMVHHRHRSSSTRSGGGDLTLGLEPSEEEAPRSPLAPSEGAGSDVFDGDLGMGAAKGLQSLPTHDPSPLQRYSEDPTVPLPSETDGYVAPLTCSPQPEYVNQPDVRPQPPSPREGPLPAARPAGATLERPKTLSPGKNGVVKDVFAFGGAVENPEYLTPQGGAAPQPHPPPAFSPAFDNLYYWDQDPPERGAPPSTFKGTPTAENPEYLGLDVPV

| Compound | IC50 |
| --- | --- |
| Cc1cc(Nc2ncnc3cnc(N4C[C@@H](O)C5(CC5)C4)nc23)c(Cl)cc1Oc1ccc2c(c1)ncn2C | 118 nM |
| Cc1cc(Nc2ncnc3cnc(N4C[C@H](O)C5(CC5)C4)nc23)ccc1Oc1ccc2c(c1)ncn2C | 10.3 nM |
| CO[C@@H]1CN(c2ncc3ncnc(Nc4ccc(Oc5ccc6c(c5)ncn6C)c(C)c4)c3n2)C[C@@H]1O | 44.5 nM |
| Cc1cc(Nc2ncnc3cnc(N(C)[C@H]4CN(C)C[C@H]4F)nc23)ccc1Oc1ccc2c(c1)ncn2C | 44.5 nM |
| Clc1cc(Nc2ncnc3cnc(N4C[C@@H]5[C@H](C4)[C@H]4CC[C@@H]5O4)nc23)ccc1Oc1ccn2ncnc2c1 | 150 nM |
| Cc1cc(Nc2ncnc3cnc(N4CC[C@@](C)(O)C4)nc23)ccc1Oc1ccc2c(c1)ncn2C | 15.7 nM |
| CO[C@@H]1CCN(c2ncc3ncnc(Nc4ccc(Oc5ccn6ncnc6c5)c(C)c4)c3n2)C1 | 898 nM |
| Cn1cnc2cc(Oc3ccc(Nc4ncnc5cnc(N6CCOCC6)nc45)cc3Cl)ccc21 [Example 81, 2,2,2-trifluoroacetate] | 77.1 nM |
| Cc1cc(Nc2ncnc3cnc(-c4ncco4)nc23)ccc1Oc1ccc2c(c1)ncn2C | 65.4 nM |
| C[C@H]1CN(c2ncc3ncnc(Nc4ccc(Oc5ccc6c(c5)ncn6C)c(Cl)c4)c3n2)CCO1 | 13.4 nM |
| Clc1cc(Nc2ncnc3cnc(N4C[C@@H]5C[C@H]4CO5)nc23)ccc1Oc1ccn2ncnc2c1 | 112 nM |
| Cc1cc(Nc2ncnc3cnc(N4CC5CC5(O)C4)nc23)ccc1Oc1ccc2c(c1)ncn2C (stereo not drawn) | 9.8 nM |
| Cn1cnc2cc(Oc3ccc(Nc4ncnc5cnc(N6C[C@@H]7[C@@H](C#N)[C@@H]7C6)nc45)cc3Cl)ccc21 | 43.2 nM |
| Cc1cc(Nc2ncnc3cnc(N4C[C@@H](O)C(C)(C)C4)nc23)ccc1Oc1ccc2c(c1)ncn2C | 87.2 nM |
| Cc1cnc(-c2ncc3ncnc(Nc4ccc(Oc5ccc6c(c5)ncn6C)c(C)c4)c3n2)o1 | 39.2 nM |

###

target: ErbB2 insYVMA (HER2-YVMA, SEQ ID NO: 2) (Homo sapiens, UniProt P04626, INS775YVMA/P1170A); test: biochemical; conditions: ErbB2 insYVMA enzyme assay; read-out: Assay 1 IC50
Sequence (P04626 with tags, fused parts or gaps INS775YVMA/P1170A limits assumed): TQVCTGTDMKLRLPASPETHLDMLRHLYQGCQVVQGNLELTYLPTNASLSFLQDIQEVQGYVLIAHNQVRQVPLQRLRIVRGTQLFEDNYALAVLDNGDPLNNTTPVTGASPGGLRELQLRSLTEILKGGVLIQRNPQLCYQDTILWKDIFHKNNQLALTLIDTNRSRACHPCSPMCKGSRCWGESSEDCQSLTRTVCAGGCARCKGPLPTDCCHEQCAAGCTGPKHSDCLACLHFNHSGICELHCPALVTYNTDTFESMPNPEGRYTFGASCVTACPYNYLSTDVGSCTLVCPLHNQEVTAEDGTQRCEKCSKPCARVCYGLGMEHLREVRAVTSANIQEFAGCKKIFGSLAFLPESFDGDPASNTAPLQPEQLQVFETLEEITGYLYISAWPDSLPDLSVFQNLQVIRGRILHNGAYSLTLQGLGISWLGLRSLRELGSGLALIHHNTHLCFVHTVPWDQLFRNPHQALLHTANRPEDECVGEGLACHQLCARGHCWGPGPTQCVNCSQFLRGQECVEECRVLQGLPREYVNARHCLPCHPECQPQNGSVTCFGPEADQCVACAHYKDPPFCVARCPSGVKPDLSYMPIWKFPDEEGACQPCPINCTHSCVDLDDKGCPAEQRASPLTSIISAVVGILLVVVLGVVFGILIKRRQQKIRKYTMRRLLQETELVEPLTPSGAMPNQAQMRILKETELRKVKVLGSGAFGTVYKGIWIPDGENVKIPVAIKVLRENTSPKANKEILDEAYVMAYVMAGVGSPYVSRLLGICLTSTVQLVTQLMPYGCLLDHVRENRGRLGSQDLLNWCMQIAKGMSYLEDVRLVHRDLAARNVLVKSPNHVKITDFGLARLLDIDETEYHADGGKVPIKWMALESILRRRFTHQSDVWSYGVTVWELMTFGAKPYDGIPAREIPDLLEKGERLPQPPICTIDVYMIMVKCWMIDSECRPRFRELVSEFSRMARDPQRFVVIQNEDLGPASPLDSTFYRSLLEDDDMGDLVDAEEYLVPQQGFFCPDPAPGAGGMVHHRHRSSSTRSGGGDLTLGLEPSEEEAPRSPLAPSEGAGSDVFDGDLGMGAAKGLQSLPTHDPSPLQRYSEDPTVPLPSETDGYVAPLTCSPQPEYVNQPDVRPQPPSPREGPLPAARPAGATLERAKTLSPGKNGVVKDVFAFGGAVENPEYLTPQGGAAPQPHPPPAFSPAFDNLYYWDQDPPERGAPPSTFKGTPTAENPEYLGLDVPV

| Compound | Test system | IC50 (nM) |
| --- | --- | --- |
| CON1CCC(Nc2ncc3ncnc(Nc4ccc(Oc5ccc6c(c5)ncn6C)c(C)c4)c3n2)C1 (stereo not shown) [Example 220] | ErbB2 insYVMA (HER2-YVMA, SEQ ID NO: 2) (Homo sapiens, UniProt P04626, INS775YVMA/P1170A) | 9.3 |
| Cc1c(Oc2ccn3ncnc3c2)ccc(Nc2ncnc3cnc(N4C[C@@H](O)C(F)(F)C4)nc23)c1F [Example 316] | ErbB2 insYVMA (HER2-YVMA, SEQ ID NO: 2) (Homo sapiens, UniProt P04626, INS775YVMA/P1170A) | 52.2 |
| Cc1cc(Nc2ncnc3cnc(O[C@H]4CN(C)CC[C@H]4F)nc23)ccc1Oc1ccc2c(c1)ncn2C [Example 293] | ErbB2 insYVMA (HER2-YVMA, SEQ ID NO: 2) (Homo sapiens, UniProt P04626, INS775YVMA/P1170A) | 87.7 |
| COc1ncc2ncnc(Nc3ccc(Oc4ccc5csnc5c4)c(C)c3)c2n1 [Example 7, 2,2,2-trifluoroacetate] | ErbB2 insYVMA (HER2-YVMA, SEQ ID NO: 2) (Homo sapiens, UniProt P04626, INS775YVMA/P1170A) | 18.5 |
